target: Torsin-1A-interacting protein 1 (Homo sapiens); test: LAP1 binders from COS7 cell lysate, primary screen, small-molecule microarray, 635/667 nm fluorescence (AID 1116); settings: COS7-hLAP1 lysate binding, 635 nm fluorescence, higher = more signal
Returns Fulfilled if the recorded composite z-score is greater than or equal to 0.4, and Not fulfilled otherwise.

Qu. Test whether the compound "CCCCCCC#C[Si](O[C@H](c1ccccc1)c1cn(Cc2ccccc2)nn1)(C(C)C)C(C)C" records composite z-score of 0.4 or higher.
Ans. Fulfilled

Qu. Please check the record "COCCCNC(=O)[C@@]1(C)c2ccccc2C(=O)N(Cc2cc(F)cc(C(F)(F)F)c2)[C@H]1c1ccc(CO)cc1" and state if its composite z-score is at or above 0.4.
Ans. Not fulfilled

Qu. Could you tell me if the measured composite z-score of "CC(C)C[C@@H]1NC(=O)[C@@H]2C[C@H](C(=O)NCCCCCNC(=O)CS)[C@H](c3cccc(OCCO)c3)N2C1=O" reaches 0.4 or more?
Ans. Fulfilled

Qu. Hi, just wondering whether "C=C(COC)/C(=C/C[C@H](OC(C)=O)c1ccc(CO)o1)c1cnc2ccccc2c1" shows composite z-score of 0.4 or higher.
Ans. Fulfilled

Qu. Would you say COC(=O)C1=CC(c2ccc(CO)cc2)=CC(c2cccs2)N(C)C=C1C(=O)OC (stereo not given) shows composite z-score at minimum 0.4?
Ans. Not fulfilled

Qu. Evaluate CC(C)C[C@@H]1NC(=O)[C@@]23C(=O)N[C@@H](Cc4ccccc4)C2[C@H](C)[C@@]2(C)O[C@H]2C3/C=C/C/C=C\CNC(=O)[C@H](Cc2ccccc2)NC1=O (stereo not given in full) : composite z-score at minimum 0.4?
Ans. Fulfilled

Qu. # bool: composite z-score of "COc1ccc([Si](C)(C)[C@@H]2[C@@H](CC(=O)N3CCC[C@H]3CO)O[C@]3(C(=O)N(Cc4ccc(I)cc4)c4ccccc43)[C@H]2C)cc1" >= 0.4
Ans. Not fulfilled

Qu. Determine whether measured composite z-score meets or exceeds 0.4 for C=CCC(OC(C)=O)[C@@H]1[C@@H](N(Cc2ccc(-c3ccccc3)cc2)C(=O)c2ccc(-c3ccccc3)cc2)c2cc(OCCCO)ccc2N1C(=O)c1ccc(-c2ccccc2)cc1 (stereo not given in full)
Ans. Not fulfilled

Qu. Given the entry CC(CO)N1C(=O)[C@@H]2C3C(=O)OCCC/C=C\[C@H]3OC23C=CCN(Cc2ccccc2)C(=O)[C@@H]13 (stereo not given in full) , answer whether its composite z-score meets or surpasses 0.4.
Ans. Not fulfilled

Qu. Would you say "CO[C@H]1O[C@H](CO)[C@@H](OC(=O)Nc2ccccc2)[C@H](OC(=O)Nc2ccccc2-c2ccccc2)[C@@H]1OC(=O)Nc1ccccc1-c1ccccc1" shows composite z-score at minimum 0.4?
Ans. Fulfilled

Qu. Record "O=C1O[C@H](c2ccccc2)[C@H](c2ccccc2)N2[C@H]1[C@@H](C(=O)NC[C@H](O)c1ccccc1)[C@]1(C(=O)Nc3ccc(C#CC4(O)CCCCCC4)cc31)[C@H]2c1ccc(O)cc1" ; criterion: composite z-score no lower than 0.4. Met?
Ans. Fulfilled

Qu. Answer whether composite z-score of "COc1ccc(/C=C/C(=O)c2cccc(OCC(=O)OC(C)(C)C)c2)cc1" is greater than or equal to 0.4.
Ans. Not fulfilled

Qu. Textbook exercise: given the entry "O=C1c2ccccc2C(=O)c2cc([C@H]3Oc4ccccc4S(=O)(=O)N4CCC[C@@H]34)ccc21" , state whether its composite z-score is greater than or equal to 0.4.
Ans. Not fulfilled

Qu. Quick check, composite z-score >= 0.4? "C=C(/C(=C/C[C@H](OC(=O)c1ccncc1)c1cccc(OCCO)c1)c1cc(C(=O)OC)ccc1OC)C(C)C"
Ans. Not fulfilled
